Where do the numbers come from? From patent US9725448B2.

Here the recorded pKi is given for each entry.
target: human NEP (Homo sapiens, UniProt P08473); construct: 1182-ZN; assay: In vitro enzyme inhibition assay at human NEP (fluorogenic peptide substrate); conditions: pKi values at human NEP (recombinant), given as ranges
Sequence (P08473 52-750 limits assumed): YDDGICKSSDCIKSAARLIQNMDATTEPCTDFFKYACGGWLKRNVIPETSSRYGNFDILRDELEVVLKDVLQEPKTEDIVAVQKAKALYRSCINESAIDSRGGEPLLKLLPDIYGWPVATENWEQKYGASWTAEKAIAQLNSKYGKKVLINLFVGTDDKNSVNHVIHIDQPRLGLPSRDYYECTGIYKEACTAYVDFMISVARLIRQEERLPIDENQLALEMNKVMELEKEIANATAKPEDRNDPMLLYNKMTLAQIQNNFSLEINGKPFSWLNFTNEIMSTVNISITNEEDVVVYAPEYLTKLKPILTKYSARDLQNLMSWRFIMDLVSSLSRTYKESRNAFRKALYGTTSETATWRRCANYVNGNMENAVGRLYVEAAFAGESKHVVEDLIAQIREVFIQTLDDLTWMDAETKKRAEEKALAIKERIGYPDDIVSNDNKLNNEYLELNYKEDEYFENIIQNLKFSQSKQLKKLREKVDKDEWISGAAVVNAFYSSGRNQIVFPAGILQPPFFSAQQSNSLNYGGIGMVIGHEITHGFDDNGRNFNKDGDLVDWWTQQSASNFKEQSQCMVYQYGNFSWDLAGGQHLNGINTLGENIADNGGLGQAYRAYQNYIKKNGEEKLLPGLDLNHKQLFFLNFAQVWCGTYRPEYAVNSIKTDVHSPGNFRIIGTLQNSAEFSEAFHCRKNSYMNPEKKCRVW
pKi: −log10 of the molar value.

Illustrative cases are given below, each with its answer.
> print(dat)
                                   compound    test.value
1  C[C@@](O)(C[C@@H](Cc1ccc(-c2ccccc2)cc1)NC(=O)c1cnn[nH]1)C(=O)O [Example 1B]  8.00 to 8.90
2  C[C@@](O)(CN(Cc1ccc(-c2cccc(Cl)c2)cc1)NC(=O)c1cn(O)nn1)C(=O)O [Example 7-2]  8.00 to 8.90
3  C[C@](O)(C[C@@H](Cc1ccc(-c2ccccc2)cc1)NC(=O)c1cnc(O)nc1)C(=O)O [Example 2-10]  8.00 to 8.90

Then there is this compound:
q: Under human NEP (Homo sapiens, UniProt P08473): pKi value of C[C@@](O)(CN(Cc1ccc(-c2cccc(Cl)c2)cc1)NC(=O)c1cc(O)no1)C(=O)O [Example 7-11] ?
a: ≥ 9.00

----------
biological target: human NEP (Homo sapiens, UniProt P08473); construct: 1182-ZN; test: In vitro enzyme inhibition assay at human NEP (fluorogenic peptide substrate); settings: pKi values at human NEP (recombinant), given as ranges
pKi: −log10 of the molar value.
readout.type: pKi

Illustrative cases are given below, each with its answer.
> print(dat)
                                   compound  readout.type    test.value
1  C[C@](O)(C[C@@H](Cc1ccc(-c2ccccc2)cc1)NC(=O)c1cc(C(=O)O)[nH]n1)C(=O)O [Example 2-11]           pKi  8.00 to 8.90
2  CC(O)(CN(Cc1ccc(-c2ccccc2)cc1)NC(=O)c1cc(O)n[nH]1)C(=O)O (stereo not shown) [Example 4-5]           pKi  7.00 to 7.90
3  CC(O)(CN(Cc1ccc(-c2ccccc2)cc1)NC(=O)c1cc(C(=O)N2CCCC2)n[nH]1)C(=O)O (stereo not shown) [Example 4-8]           pKi  7.00 to 7.90
4  C[C@@](O)(CN(Cc1ccc(-c2cc(F)ccc2F)cc1)NC(=O)c1cc(O)no1)C(=O)O [Example 7-18]           pKi  8.00 to 8.90
5  Cc1ccc(Cl)cc1-c1ccc(CN(C[C@@](C)(O)C(=O)O)NC(=O)c2nnn[nH]2)cc1 [Example 7-24]           pKi  8.00 to 8.90
6  O=C(N[C@H](Cc1ccc(-c2ccccc2)cc1)CC1(C(=O)O)CC1)c1cnn[nH]1 [Example 11-1]           pKi  7.00 to 7.90

Then there is this compound:
q: Entry CC(O)(CN(Cc1ccc(-c2ccccc2)cc1)NC(=O)c1cnc(O)nc1)C(=O)O (stereo not shown) [Example 4-4] : reported pKi = ?
a: 7.00 to 7.90

----------
Here the recorded Ki is given for each entry.
biological target: human NEP (Homo sapiens); construct: 1182-ZN; assay: In vitro enzyme inhibition assay at human NEP (fluorogenic peptide substrate); conditions: pKi values at human NEP (recombinant), given as ranges

q: Entry CC(C)(C[C@@H](Cc1ccc(-c2ccccc2)cc1)NC(=O)c1cc(C(=O)N2CCOCC2)n[nH]1)C(=O)O : reported Ki = ?
a: 12.6 to 100 nM

q: Next molecule: CC(=O)c1cc(C(=O)N[C@H](Cc2ccc(-c3ccccc3)cc2)CC(C)(C)C(=O)O)[nH]n1
a: 12.6 to 100 nM

q: Next molecule: CC(O)(C[C@@H](Cc1ccc(-c2ccccc2)cc1)NC(=O)c1cc(F)c2nn[nH]c2c1)C(=O)O (some centres unmarked)
a: 1.26 to 10 nM

q: Next molecule: CC(O)(C[C@@H](Cc1ccc(-c2ccccc2)cc1)NC(=O)c1cc(Cl)c2nn[nH]c2c1)C(=O)O (some centres unmarked)
a: 1.26 to 10 nM

q: Next molecule: CC(O)(CN(Cc1ccc(-c2ccccc2)cc1)NC(=O)c1cc(C(=O)O)n[nH]1)C(=O)O (centres unmarked)
a: 1.26 to 10 nM

q: Next molecule: O=C(N[C@H](Cc1ccc(-c2ccccc2)cc1)CC1(C(=O)O)CC1)c1cc(O)n[nH]1
a: 12.6 to 100 nM

q: Next molecule: CC(O)(CN(Cc1ccc(-c2cccc(F)c2)cc1)NC(=O)c1cc(O)no1)C(=O)O (centres unmarked)
a: 1.26 to 10 nM

q: Next molecule: CC(O)(CN(Cc1ccc(-c2ccccc2)cc1)NC(=O)c1nnc(Cl)[nH]1)C(=O)O (centres unmarked)
a: 126 to 1000 nM

q: Next molecule: CC(O)(CN(Cc1ccc(-c2ccccc2)cc1)NC(=O)c1cnn[nH]1)C(=O)O (centres unmarked)
a: 12.6 to 100 nM

q: Next molecule: O=C(N[C@H](Cc1ccc(-c2ccccc2)cc1)CC1(C(=O)O)CC1)c1nc(O)n[nH]1
a: 1.26 to 10 nM

q: Next molecule: C[C@@](O)(C[C@@H](Cc1ccc(-c2ccccc2)cc1)NC(=O)c1cnc(O)nc1)C(=O)O
a: ≤ 1 nM

----------
target: human NEP (Homo sapiens); construct: 1182-ZN; assay: In vitro enzyme inhibition assay at human NEP (fluorogenic peptide substrate); conditions: pKi values at human NEP (recombinant), given as ranges
readout.type: Ki

Illustrative cases are given below, each with its answer.
> print(dat)
                                   molecule     target.or.test.system      test.value
1  CN(C)C(=O)c1cc(C(=O)NN(Cc2ccc(-c3ccccc3)cc2)CC(C)(O)C(=O)O)[nH]n1 (stereo not shown) [Example 4-7]  human NEP (Homo sapiens)  12.6 to 100 nM
2  CC(C)(C[C@@H](Cc1ccc(-c2ccccc2)cc1)NC(=O)c1cc(C(=O)O)n[nH]1)C(=O)O [Example 9-6]  human NEP (Homo sapiens)          ≤ 1 nM

q: Entry C[C@@](O)(CN(Cc1ccc(-c2cc(Cl)cc(Cl)c2)cc1)NC(=O)c1cc(O)no1)C(=O)O [Example 7-13] : reported Ki = ?
a: 12.6 to 100 nM

q: Next molecule: C[C@@](O)(CN(Cc1ccc(-c2cccc(Cl)c2)cc1)NC(=O)c1cc(-c2cnccn2)n[nH]1)C(=O)O [Example 7-8]
a: 12.6 to 100 nM

----------
target: human NEP (Homo sapiens, UniProt P08473); construct: 1182-ZN; experiment: In vitro enzyme inhibition assay at human NEP (fluorogenic peptide substrate); settings: pKi values at human NEP (recombinant), given as ranges
pKi: −log10 of the molar value.
Here the recorded pKi is given for each entry.

> print(dat)
                                   molecule  readout.type    test.value
1  CC(O)(C[C@@H](Cc1ccc(-c2ccccc2)cc1)NC(=O)c1cc(O)no1)C(=O)O (stereo partly shown) [Example 2-7]           pKi        ≥ 9.00
2  C[C@@](O)(CN(Cc1ccc(-c2cccc(Cl)c2)cc1)NC(=O)c1cc(C(=O)O)ncn1)C(=O)O [Example 7-26]           pKi        ≥ 9.00
3  CC(C)(C[C@@H](Cc1ccc(-c2ccccc2)cc1)NC(=O)c1cnn[nH]1)C(=O)O [Example 9-1]           pKi  8.00 to 8.90

q: Entry C[C@@](O)(CN(Cc1ccc(-c2cccc(Cl)c2)cc1)NC(=O)c1cnn[nH]1)C(=O)O [Example 7-1] : reported pKi = ?
a: 8.00 to 8.90

q: Next molecule: C[C@@](O)(CN(Cc1ccc(-c2cc(Cl)ccc2F)cc1)NC(=O)c1cn(O)nn1)C(=O)O [Example 7-3]
a: ≥ 9.00

q: Next molecule: COCCN(C)C(=O)c1cc(C(=O)N[C@H](Cc2ccc(-c3ccccc3)cc2)CC(C)(C)C(=O)O)[nH]n1 [Example 9-15]
a: 8.00 to 8.90

q: Next molecule: CC(O)(C[C@@H](Cc1ccc(-c2ccccc2)cc1)NC(=O)c1cc(O)n[nH]1)C(=O)O (stereo partly shown) [Example 2-12]
a: 8.00 to 8.90

----------
molecular target: human NEP (Homo sapiens); construct: 1182-ZN; experiment: In vitro enzyme inhibition assay at human NEP (fluorogenic peptide substrate); details: pKi values at human NEP (recombinant), given as ranges
readout.type: Ki

q: Entry CC(C)(C[C@@H](Cc1ccc(-c2ccccc2)cc1)NC(=O)c1cc(C(=O)N2CCC(O)CC2)n[nH]1)C(=O)O [Example 9-10] : reported Ki = ?
a: 12.6 to 100 nM

q: Next compound: CC(C)(C[C@@H](Cc1ccc(-c2ccccc2)cc1)NC(=O)c1cc(O)no1)C(=O)O [Example 8A]
a: ≤ 1 nM
